- measured-on: 5-HT2B receptor (Homo sapiens)
- Construct: host or cells: HEK293 (stably transfected)
- Sequence (P41595 whole entry): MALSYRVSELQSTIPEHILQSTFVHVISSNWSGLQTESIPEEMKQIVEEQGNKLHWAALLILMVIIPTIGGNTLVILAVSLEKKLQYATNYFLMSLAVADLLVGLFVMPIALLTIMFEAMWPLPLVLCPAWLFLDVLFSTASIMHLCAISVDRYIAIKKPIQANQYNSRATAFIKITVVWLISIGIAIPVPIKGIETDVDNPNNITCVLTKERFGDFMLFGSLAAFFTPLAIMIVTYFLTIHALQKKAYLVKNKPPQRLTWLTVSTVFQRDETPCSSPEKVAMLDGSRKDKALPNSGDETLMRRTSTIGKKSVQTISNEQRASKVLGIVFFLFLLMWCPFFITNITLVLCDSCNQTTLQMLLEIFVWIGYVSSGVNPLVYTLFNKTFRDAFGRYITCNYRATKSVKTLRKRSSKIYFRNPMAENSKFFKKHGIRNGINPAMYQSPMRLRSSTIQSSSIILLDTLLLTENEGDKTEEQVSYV
- experimental-protocol: FLIPR Ca2+ flux functional assay, antagonist activity at 5-HT2B
- Type: cell-based
- experimental-conditions: antagonist activity, Ca2+ flux, HEK293 cells, agonist at EC80; read-out: 5-HT2B IC50
result-type: pIC50
Just so you know, pIC50 here is -log10 of the concentration in molar units; reply with that number alone.

IN: Could you share which pIC50 value was measured for COc1cccc(OC(C)CNC(=N)Cc2cccc(C)c2)c1.O=C(O)C(F)(F)F (centres unmarked) ?
OUT: 7.88

----------
- experimental-protocol: in vivo
- experimental-conditions: male, Sprague Dawley, rat, in vivo, sc, 1 mg/kg
result-type: Tmax
Hi, when you answer, please include the unit after the number. Thanks!

IN: Fill in: Tmax of CC(C)COc1ccc(CNC(=O)N(Cc2ccc(F)cc2)C2CCN(C(=O)CC[C@H](N)C(=O)O)CC2)cc1 [Compound 14a] is ___
OUT: 30 min
